Target: S. aureus RnpA (Staphylococcus aureus, UniProt P0A0H5)
Construct: made in house; host or cells: E. coli BL21 (DE3)
Sequence (P0A0H5 1-117): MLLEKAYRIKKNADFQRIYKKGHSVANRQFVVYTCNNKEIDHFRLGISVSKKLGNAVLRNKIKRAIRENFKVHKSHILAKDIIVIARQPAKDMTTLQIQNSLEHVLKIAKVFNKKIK
Assay: In vitro RnpA mRNA degradation assay (RNase Alert FRET substrate)
Assay type: biochemical
Method: His-tagged RnpA was purified as previously described. […] Fractions were assessed for RnpA presence and purity via SDS-PAGE analysis, Coomassie staining and Western blotting using an anti-His antibody (Invitrogen; Grand Island, NY, USA). RnpA-mediated degradation was assessed using the Rnase Alert QC System (Thermofisher Scientific). […]
property_label: Inhibition of in vitro RnpA-mediated RNA degradation (in words)

compound_smiles | tested_system | measured_result
O=C(Nc1ccc(F)cc1)c1c(NC(=O)C(F)(F)F)sc2c1CCCCC2 | S. aureus RnpA (Staphylococcus aureus, UniProt P0A0H5) | least effective
O=C(Nc1cccc(F)c1)c1c(NC(=O)C(F)(F)F)sc2c1CCCCC2 | S. aureus RnpA (Staphylococcus aureus, UniProt P0A0H5) | least effective
Cc1cccc(NC(=O)c2c(NC(=O)C(F)(F)F)sc3c2CCCCC3)c1 | S. aureus RnpA (Staphylococcus aureus, UniProt P0A0H5) | least effective

====

Target: S. aureus RnpA (Staphylococcus aureus, UniProt P0A0H5)
Construct: made in house; host or cells: E. coli BL21 (DE3)
Sequence (P0A0H5 1-117): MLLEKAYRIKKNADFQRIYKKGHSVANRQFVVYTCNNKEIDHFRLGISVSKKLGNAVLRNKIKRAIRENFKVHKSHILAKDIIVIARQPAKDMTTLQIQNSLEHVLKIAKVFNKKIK
Assay: In vitro RnpA mRNA degradation assay (RNase Alert FRET substrate)
Type: biochemical
property_label: IC50 (µM)
Please give a number only; it is taken to be in µM.

stdin: Query: IC50; subject: O=C(CF)Nc1sc2c(c1C(=O)Nc1cccc(Cl)c1)CCCCC2 [RNP0018]
stdout: 33

====

Assay: MTT cytotoxicity testing
Conditions: human, HEP G2 cells (human liver epithelial cells)
Method: For the scaffold to have translational significance, it must be non-toxic to human cells. Accordingly, an initial assessment of toxicity was performed using human liver epithelial (HEP G2) cells via a 3-(4,5-dimethylthiazol-2-yl)-2,5-diphenyltetrazolium bromide (MTT) assay in the presence of up to 400 µM of each analog. […] Viability of 70% was used as the cut-off criteria for toxicity (Figure 4, dashed line), according to ISO guidelines, as described in Materials and Methods. […]
property_label: viability at 50 µM (%)
Please give a number only; it is taken to be in %.

stdin: Query: viability at 50 µM; subject: O=C(Nc1ccc(C(F)(F)F)cc1)c1c(NC(=O)C(F)(F)F)sc2c1CCCCC2
stdout: 68

====

Target: S. aureus RnpA (Staphylococcus aureus, UniProt P0A0H5)
Construct: made in house; host or cells: E. coli BL21 (DE3)
Sequence (P0A0H5 1-117): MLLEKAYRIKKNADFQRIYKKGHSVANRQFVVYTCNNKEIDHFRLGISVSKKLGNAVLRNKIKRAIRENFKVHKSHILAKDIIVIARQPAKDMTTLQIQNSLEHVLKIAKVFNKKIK
Assay: In vitro RnpA mRNA degradation assay (RNase Alert FRET substrate)
Type: biochemical
Details: in vitro RnpA-mediated RNA degradation; read-out: mRNA IC50
property_label: IC50 (µM)
Please give a number only; it is taken to be in µM.

Check out these entries, answers already filled in.
compound_smiles | measured_result
O=C(Nc1cccc(Cl)c1)c1c(NC(=O)C(F)F)sc2c1CCCCC2 | 43
O=C(Nc1cccc(Cl)c1)c1c(NC(=O)C(F)(F)F)sc2c1CCCCC2 | 175
O=C(Nc1ccc(C(F)(F)F)cc1)c1c(NC(=O)C(F)(F)F)sc2c1CCCCC2 | 68

Let's switch to this compound now.
stdin: Query: IC50; subject: O=C(Nc1ccc(C(F)(F)F)cc1)c1c(NC(=O)C(F)(F)F)sc2c1CCCC2
stdout: 43

====

Molecular target: RNase P (RnpA + rnpB) (Staphylococcus aureus)
Construct: made in house; host or cells: E. coli BL21 (DE3)
Sequence (P0A0H5 1-117): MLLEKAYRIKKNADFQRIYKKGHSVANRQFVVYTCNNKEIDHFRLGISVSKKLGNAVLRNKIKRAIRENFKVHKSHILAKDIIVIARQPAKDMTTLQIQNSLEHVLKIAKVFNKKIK
Assay: In vitro ptRNA^Tyr processing assay with reconstituted RNase P
Format: biochemical
Conditions: in vitro ptRNA^Tyr processing; average of at least two tests; read-out: ptRNA IC50
// reported pIC50 for each item listed
Please note pIC50 is a logarithmic value: minus log10 of concentration in mol/L. Answer with that number alone.

compound_smiles | tested_system | measured_result
Cc1cccc(NC(=O)c2c(NC(=O)C(F)(F)F)sc3c2CCCCC3)c1 | RNase P (RnpA + rnpB) (Staphylococcus aureus) | 4.15
O=C(Nc1ccc(F)cc1)c1c(NC(=O)C(F)(F)F)sc2c1CCCCC2 | RNase P (RnpA + rnpB) (Staphylococcus aureus) | 4.10
O=C(Nc1ccc(F)cc1)c1c(NC(=O)C(F)(F)F)sc2c1CCCC2 | RNase P (RnpA + rnpB) (Staphylococcus aureus) | 3.86
O=C(Nc1cccc(C(F)(F)F)c1)c1c(NC(=O)C(F)(F)F)sc2c1CCCC2 | RNase P (RnpA + rnpB) (Staphylococcus aureus) | 4.28
O=C(Nc1cccc(C(F)(F)F)c1)c1c(NC(=O)C(F)(F)F)sc2c1CCCCC2 | RNase P (RnpA + rnpB) (Staphylococcus aureus) | 4.24
O=C(Nc1cccc(F)c1)c1c(NC(=O)C(F)(F)F)sc2c1CCCC2 | RNase P (RnpA + rnpB) (Staphylococcus aureus) | 4.02
O=C(Nc1cccc(Cl)c1)c1c(NC(=O)C(F)(F)F)sc2c1CCCCC2 | RNase P (RnpA + rnpB) (Staphylococcus aureus) | 4.01
O=C(Nc1ccc(C(F)(F)F)cc1)c1c(NC(=O)C(F)(F)F)sc2c1CCCCC2 | RNase P (RnpA + rnpB) (Staphylococcus aureus) | 4.18

stdin: Query: pIC50; subject: O=C(Nc1ccc(C(F)(F)F)cc1)c1c(NC(=O)C(F)(F)F)sc2c1CCCC2
stdout: 4.34

stdin: Next molecule up: O=C(Nc1cccc(F)c1)c1c(NC(=O)C(F)(F)F)sc2c1CCCCC2
stdout: 4.11

====

biological target: S. aureus RnpA (Staphylococcus aureus, UniProt P0A0H5); construct: made in house; host or cells: E. coli BL21 (DE3); experiment: In vitro RnpA mRNA degradation assay (RNase Alert FRET substrate); type: biochemical; conditions: in vitro RnpA-mediated RNA degradation; read-out: mRNA IC50
// reported pIC50 for each item listed
Please note pIC50 is a logarithmic value: minus log10 of concentration in mol/L. Answer with that number alone.

Check out these entries, answers already filled in.
compound | pIC50
Cc1cccc(NC(=O)c2c(NC(=O)C(F)(F)F)sc3c2CCCCC3)c1 [RNP0010] | 3.65
O=C(Nc1cccc(F)c1)c1c(NC(=O)C(F)(F)F)sc2c1CCCCC2 [RNP0008] | 3.61
O=C(Nc1cccc(C(F)(F)F)c1)c1c(NC(=O)C(F)(F)F)sc2c1CCCC2 [RNP0016] | 4.35
O=C(Nc1ccc(F)cc1)c1c(NC(=O)C(F)(F)F)sc2c1CCCC2 [RNP0014] | 5.19
O=C(Nc1cccc(F)c1)c1c(NC(=O)C(F)(F)F)sc2c1CCCC2 [RNP0013] | 4.30

Let's switch to this compound now.
stdin: Query: pIC50; subject: O=C(Nc1cccc(C(F)(F)F)c1)c1c(NC(=O)C(F)(F)F)sc2c1CCCCC2 [RNP0011]
stdout: 4.23

====

Molecular target: RNase P (RnpA + rnpB) (Staphylococcus aureus, UniProt P0A0H5)
Construct: made in house; host or cells: E. coli BL21 (DE3)
Sequence (P0A0H5 1-117): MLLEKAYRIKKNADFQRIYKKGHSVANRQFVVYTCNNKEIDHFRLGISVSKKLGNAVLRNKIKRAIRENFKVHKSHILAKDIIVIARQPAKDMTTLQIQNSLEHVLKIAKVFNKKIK
Assay: In vitro ptRNA^Tyr processing assay with reconstituted RNase P
Assay type: biochemical
Settings: ptRNA IC50, in vitro ptRNA^Tyr processing; average of at least two tests
property_label: IC50 (µM)
Please give a number only; it is taken to be in µM.

stdin: Missing value: IC50, RNase P (RnpA + rnpB) (Staphylococcus aureus, UniProt P0A0H5), entry O=C(CF)Nc1sc2c(c1C(=O)Nc1cccc(Cl)c1)CCCCC2 . Fill in?
stdout: 58
